Recorded Uterotropic effect (% of estradiol) Given without estradiol for the following compounds
- Test system: immature female rats
- TEST_DESCRIPTION: 3 day uterotropic assay in immature female rats (given alone and with estradiol)
- Assay type: in vivo
- STUDY_CONDITIONS: dose 3–5 mg/kg; 3 days; immature female rats

Previously resolved entries follow.
| COMPOUND | ENDPOINT_VALUE |
| --- | --- |
| O=C(c1ccc(OCCN2CCCCC2)cc1)c1c(-c2ccc(O)cc2)sc2cc(O)ccc12 [Raloxifene, reference compound] | 11 % of estradiol |
| CN(C)CCOc1ccc(/C(=C(/CCCl)c2ccccc2)c2ccc(Cl)cc2)cc1 | 44 % of estradiol |
| CC/C(=C(\c1ccccc1)c1ccc(OCCN(C)C)cc1)c1ccccc1 [Tamoxifen, reference compound] | 44 % of estradiol |

Asked: Form field: Uterotropic effect (% of estradiol) Given without estradiol recorded for CN(C)CCOc1ccc(/C(=C(/CCCl)c2ccccc2)c2ccc(F)cc2)cc1 with immature female rats (enter value)
Given back: 42 % of estradiol

Asked: Observed Uterotropic effect (% of estradiol) Given without estradiol on immature female rats for CN(C)CCOc1ccc(/C(=C(/CCCl)c2ccccc2)c2ccccc2)cc1 [Toremifene, reference compound] , please.
Given back: 26 % of estradiol

Asked: # returns recorded Uterotropic effect (% of estradiol) Given without estradiol (system: immature female rats) for OCCCOc1ccc(/C(=C(/CCCl)c2ccccc2)c2ccccc2)cc1
Given back: 43 % of estradiol

====

- Test system: immature female rats
- TEST_DESCRIPTION: 3 day uterotropic assay in immature female rats (given alone and with estradiol)
- Assay type: in vivo
- STUDY_CONDITIONS: dose 10–50 mg/kg; 3 days; immature female rats
ATTRIBUTE_MEASURED: Estrogen antagonism (% inhibition of estradiol) Given with estradiol

As a guide, the following entries are already answered.
| COMPOUND | ENDPOINT_VALUE |
| --- | --- |
| CN(C)CCOc1ccc(/C(=C(/CCCl)c2ccccc2)c2ccc(F)cc2)cc1 | 31 % inhibition of estradiol |
| CC/C(=C(\c1ccccc1)c1ccc(OCCN(C)C)cc1)c1ccccc1 [Tamoxifen, reference compound] | 58 % inhibition of estradiol |
| O=C(c1ccc(OCCN2CCCCC2)cc1)c1c(-c2ccc(O)cc2)sc2cc(O)ccc12 [Raloxifene, reference compound] | 92 % inhibition of estradiol |
| CN(C)CCOc1ccc(/C(=C(/CCCl)c2ccccc2)c2ccc(Cl)cc2)cc1 | 38 % inhibition of estradiol |

Asked: Estrogen antagonism (% inhibition of estradiol) Given with estradiol lookup needed for CN(C)CCOc1ccc(/C(=C(/CCCl)c2ccccc2)c2ccccc2)cc1 [Toremifene, reference compound] , thanks.
Given back: 58 % inhibition of estradiol

Asked: Entry under review: OCCCOc1ccc(/C(=C(/CCCl)c2ccccc2)c2ccccc2)cc1 . Reported Estrogen antagonism (% inhibition of estradiol) Given with estradiol?
Given back: 32 % inhibition of estradiol
